details: human;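 also: value is a count of indexed literature references reporting cirrhosis confirmed by histopathology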
observation.type: Hepatotoxicity (cirrhosis)

compound="Cc1c(-c2ccccc2)oc2c(C(=O)OCCN3CCCCC3)cccc2c1=O [FLAVOXATE]" observation_type="Hepatotoxicity (cirrhosis)" observed=0
compound=Cc1nc(C)c2c(n1)N(Cc1ccc(-c3ccccc3-c3nnn[nH]3)cc1)C(=O)CC2 observation_type="Hepatotoxicity (cirrhosis)" observed=0
compound="CCNC(=O)[C@@H]1CCCN1C(=O)[C@H](CCCNC(=N)N)NC(=O)[C@H](CC(C)C)NC(=O)[C@@H](CC(C)C)NC(=O)[C@H](Cc1ccc(O)cc1)NC(=O)[C@H](CO)NC(=O)[C@H](Cc1c[nH]c2ccccc12)NC(=O)[C@H](Cc1c[nH]cn1)NC(=O)[C@@H]1CCC(=O)N1 [LEUPROLIDE]" observation_type="Hepatotoxicity (cirrhosis)" observed=0
compound=CCN(CC)CCn1c(-c2ccccc2)noc1=N observation_type="Hepatotoxicity (cirrhosis)" observed=0
compound=CC(C)=CCC1C(=O)N(c2ccccc2)N(c2ccccc2)C1=O observation_type="Hepatotoxicity (cirrhosis)" observed=0
compound="CC(=O)Nc1ccc(OCC(O)CNC(C)C)cc1 (stereo unspecified)" observation_type="Hepatotoxicity (cirrhosis)" observed=1
compound=Nc1ncn([C@@H]2O[C@H](CO)[C@@H](O)[C@H]2O)c(=O)n1 observation_type="Hepatotoxicity (cirrhosis)" observed=0
compound=N[C@@H](CSCC(=O)O)C(=O)O observation_type="Hepatotoxicity (cirrhosis)" observed=0
compound="C=CCOc1ccccc1OCC(O)CNC(C)C (stereo unspecified)" observation_type="Hepatotoxicity (cirrhosis)" observed=0
compound=CC[C@H]1OC(=O)[C@H](C)C(=O)[C@H](C)[C@@H](O[C@@H]2O[C@H](C)C[C@H](N(C)C)[C@H]2O)[C@](C)(OC)C[C@@H](C)C(=O)[C@H](C)[C@H]2N(CCCCn3cnc(-c4cccnc4)c3)C(=O)O[C@]12C observation_type="Hepatotoxicity (cirrhosis)" observed=0
compound=CC(=O)N[C@H]1[C@H]([C@H](O)[C@H](O)CO)OC(C(=O)O)=C[C@@H]1N=C(N)N observation_type="Hepatotoxicity (cirrhosis)" observed=0
compound="Cc1cccc(C)c1NC(=O)C(C)N (stereo unspecified) [TOCAINIDE]" observation_type="Hepatotoxicity (cirrhosis)" observed=0
compound=C=C(CC)C(=O)c1ccc(OCC(=O)O)c(Cl)c1Cl observation_type="Hepatotoxicity (cirrhosis)" observed=0
compound=O=C(O)c1cccnc1Nc1cccc(C(F)(F)F)c1 observation_type="Hepatotoxicity (cirrhosis)" observed=0
compound=CN(C)[C@@H]1C(O)=C(C(N)=O)C(=O)[C@@]2(O)C(O)=C3C(=O)c4c(O)ccc(Cl)c4[C@@](C)(O)[C@H]3C[C@@H]12 observation_type="Hepatotoxicity (cirrhosis)" observed=0
compound="Cc1cc(O)c(C(=O)N[C@@H](C(=O)N[C@@H]2C(=O)N3C(C(=O)O)=C(CSc4nnnn4C)CS[C@H]23)c2ccc(O)cc2)cn1 [CEFPIRAMIDE]" observation_type="Hepatotoxicity (cirrhosis)" observed=0
compound=CC(=O)[C@H]1CC[C@H]2[C@@H]3CC[C@H]4C[C@H](O)CC[C@]4(C)[C@H]3C(=O)C[C@]12C.C[C@]12CC[C@@H](O)C[C@@H]1CC[C@H]1[C@@H]3CC[C@H](C(=O)CO)[C@@]3(C)CC(=O)[C@@H]12 observation_type="Hepatotoxicity (cirrhosis)" observed=0
compound=O=C(O)CCC(=O)c1ccc(-c2ccccc2)cc1 observation_type="Hepatotoxicity (cirrhosis)" observed=0
compound="O=C1CC[C@@]2(O)[C@H]3Cc4ccc(O)c5c4[C@@]2(CCN3CC2CC2)[C@H]1O5 [NALTREXONE]" observation_type="Hepatotoxicity (cirrhosis)" observed=0
compound="O=C(COc1ccc(Cl)cc1)N1CCN(Cc2ccc3c(c2)OCO3)CC1 [FIPEXIDE]" observation_type="Hepatotoxicity (cirrhosis)" observed=0
compound="CC(OC(=O)OC1CCCCC1)OC(=O)C1=C(CSc2nnnn2CCN(C)C)CS[C@@H]2[C@H](NC(=O)Cc3csc(N)n3)C(=O)N12 (stereo partly specified)" observation_type="Hepatotoxicity (cirrhosis)" observed=0
compound="C=CCC(C(=O)NC(N)=O)C(C)C (stereo unspecified)" observation_type="Hepatotoxicity (cirrhosis)" observed=0
compound="CO/N=C1\\CN(c2nc3c(cc2F)c(=O)c(C(=O)O)cn3C2CC2)CC1CN (stereo unspecified)" observation_type="Hepatotoxicity (cirrhosis)" observed=0
compound=C=COCC(F)(F)F observation_type="Hepatotoxicity (cirrhosis)" observed=0
compound=NCC[C@H](O)C(=O)N[C@@H]1C[C@H](N)[C@@H](O[C@H]2O[C@H](CN)CC[C@H]2N)[C@H](O)[C@H]1O[C@H]1O[C@H](CO)[C@@H](O)[C@H](N)[C@H]1O observation_type="Hepatotoxicity (cirrhosis)" observed=0
compound=[AsH3] observation_type="Hepatotoxicity (cirrhosis)" observed=1
compound="CNC(=O)OCc1cccc(COC(=O)NC)n1 [PYRICARBATE]" observation_type="Hepatotoxicity (cirrhosis)" observed=0
compound=COc1cc(NS(C)(=O)=O)ccc1Nc1c2ccccc2nc2ccccc12 observation_type="Hepatotoxicity (cirrhosis)" observed=0
compound=C=CC1=C(C(=O)O)N2C(=O)[C@@H](NC(=O)/C(=N\O)c3csc(N)n3)[C@H]2SC1 observation_type="Hepatotoxicity (cirrhosis)" observed=0
compound=CCCCCOC(=O)Nc1nc(=O)n([C@@H]2O[C@H](C)[C@@H](O)[C@H]2O)cc1F observation_type="Hepatotoxicity (cirrhosis)" observed=0
compound=CSc1nc2cc(Cl)c(Oc3cccc(Cl)c3Cl)cc2[nH]1 observation_type="Hepatotoxicity (cirrhosis)" observed=0
